Compiled record: Ki values for 5-hydroxytryptamine receptor 1A (Homo sapiens, UniProt P08908) across several sources.
measurement_type: Ki (nM)

Use the examples below as a reference point.
- smiles_data: "Cc1cccc(Sc2ccccc2N2CCNCC2)c1"
  measurement_type: "Ki"
  experimental_result: 100
- smiles_data: "CC(C)c1ccccc1OCCN1CCC(NS(=O)(=O)c2cccc(F)c2)CC1"
  measurement_type: "Ki"
  experimental_result: 356
- smiles_data: "COc1cccc(CCc2ccccc2OCCCN2CCc3ccccc3C2)c1"
  measurement_type: "Ki"
  experimental_result: 1120

(I) COc1ccc2cccc(N3CCN(CCCCCn4ncc(=O)n(C)c4=O)CC3)c2c1
(II) NC(=O)[C@@H]1CCCN1C(=O)CCCCCCN1CCN(c2noc3ccccc23)CC1
(Q) API: POST /compare with I and II ; response names the item with higher Ki. Answer with the label corresponding to your selection.
(A) I
(I: 240 nM, II: 122 nM)

(I) O=C(NCCCCN1CCN(c2ccccc2)CC1)c1cc2ccccc2cn1
(II) CC(=O)c1c(OCCCN2CCN(c3cc(C)ccc3C)CC2)ccc2c(C)cc(=O)oc12
(Q) // task: argmin of Ki over [ I , II ] Could you answer with the label of the item you picked?
(A) II

(A) C[C@H]1CN(c2cccc3cc(C#N)ccc23)CCN1CC[C@@H]1OCCc2cc(C(N)=O)ccc21
(B) CC1(C)Cc2cccc(N3CCN(CCc4ccc5c(c4)NC(=O)CO5)CC3)c2O1
(Q) Among A and B , whose measured Ki is the smaller figure? Lab log: write the label of the selected item as the result.
(A) B
